target_of_assay: human PPARγ2 (Homo sapiens, UniProt P37231)
Construct: the amino acids 182 to 505 of human PPARγ2
Sequence (P37231 182-505): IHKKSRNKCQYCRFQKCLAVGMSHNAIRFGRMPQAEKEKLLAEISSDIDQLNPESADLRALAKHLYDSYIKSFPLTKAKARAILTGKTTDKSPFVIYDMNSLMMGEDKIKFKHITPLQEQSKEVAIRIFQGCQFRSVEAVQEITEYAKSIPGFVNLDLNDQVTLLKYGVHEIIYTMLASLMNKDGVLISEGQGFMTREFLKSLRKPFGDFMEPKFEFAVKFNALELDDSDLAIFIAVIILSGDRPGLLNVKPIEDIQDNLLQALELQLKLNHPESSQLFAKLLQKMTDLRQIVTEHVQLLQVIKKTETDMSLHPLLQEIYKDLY
assay_name: PPARγ activation activity, Gal4-PPARγ2 LBD chimera luciferase transfection assay in COST cells
experimental_conditions: Gal4 (aa 1-147)/human PPARγ2 LBD (aa 182-505) chimera, luciferase reporter, 16 hours, rosiglitazone (3 to 10 μmol/L) = 100%, read-out: EC50 (50% effective concentration, PPARγ activation)
Our labelling divides records by EC50 into ranges: low = under 700 nM, intermediate = from 700 nM up to 1000 nM, high = 1000 nM and over

compound	cat
CCCCc1nc(C)nc(OC2CCC(O)CC2)c1Cc1ccc(-c2ccccc2-c2noc(=O)[nH]2)cc1 (centres unmarked)	high
CCCCc1nc(C)nc(OCCSC)c1Cc1ccc(-c2ccccc2-c2noc(=O)[nH]2)cc1	low
CCCCc1nc(C)nc(OCC(OC)OC)c1Cc1ccc(-c2ccccc2-c2noc(=O)[nH]2)cc1	intermediate
CCCCc1nc(C)nc(OC(C(=O)OC)c2ccccc2)c1Cc1ccc(-c2ccccc2-c2noc(=O)[nH]2)cc1 (centres unmarked)	intermediate
CCCCc1nc(C)nc(OCCOC)c1Cc1ccc(-c2ccccc2-c2noc(=O)[nH]2)cc1	intermediate
CCCCc1nc(C)nc(OCCCC(=O)OCC)c1Cc1ccc(-c2ccccc2-c2noc(=O)[nH]2)cc1	intermediate
CCCCc1nc(C)nc(OCCCC(=O)NCC)c1Cc1ccc(-c2ccccc2-c2noc(=O)[nH]2)cc1	high
CCCCc1nc(C)nc(OCC(=O)N2CCCC2)c1Cc1ccc(-c2ccccc2-c2noc(=O)[nH]2)cc1	high
CCCCc1nc(C)nc(OCCOCc2ccccc2)c1Cc1ccc(-c2ccccc2-c2noc(=O)[nH]2)cc1	low
CCCCc1nc(C)nc(OCCOCCC)c1Cc1ccc(-c2ccccc2-c2noc(=O)[nH]2)cc1	low
CCCCc1nc(C)nc(OCC2OCCO2)c1Cc1ccc(-c2ccccc2-c2noc(=O)[nH]2)cc1	high
CCCCc1nc(C)nc(OCC(OCC)OCC)c1Cc1ccc(-c2ccccc2-c2noc(=O)[nH]2)cc1	low
CCCCc1nc(C)nc(OCC(=O)N2CCCCC2)c1Cc1ccc(-c2ccccc2-c2noc(=O)[nH]2)cc1	high
CCCCc1nc(C)nc(OCCOC(C)C)c1Cc1ccc(-c2ccccc2-c2noc(=O)[nH]2)cc1	low
CCCCc1nc(C)nc(OCc2nc(-c3ccc(C)cc3)oc2C)c1Cc1ccc(-c2ccccc2-c2noc(=O)[nH]2)cc1	low
CCCCc1nc(C)nc(OCCOCC)c1Cc1ccc(-c2ccccc2-c2noc(=O)[nH]2)cc1	intermediate
CCCCc1nc(C)nc(OCC(=O)OCC)c1Cc1ccc(-c2ccccc2-c2noc(=O)[nH]2)cc1	high
CCCCc1nc(C)nc(OCC(N)=O)c1Cc1ccc(-c2ccccc2-c2noc(=O)[nH]2)cc1	high
CCCCc1nc(C)nc(OCCCC(=O)N(CC)CC)c1Cc1ccc(-c2ccccc2-c2noc(=O)[nH]2)cc1	high
CCCCc1nc(C)nc(OCCOCCOC)c1Cc1ccc(-c2ccccc2-c2noc(=O)[nH]2)cc1	high
CCCCc1nc(C)nc(OCC(C)=O)c1Cc1ccc(-c2ccccc2-c2noc(=O)[nH]2)cc1	intermediate
CCCCc1nc(C)nc(OC(C(=O)O)c2ccccc2)c1Cc1ccc(-c2ccccc2-c2noc(=O)[nH]2)cc1 (centres unmarked)	high
CCCCc1nc(C)nc(OCC(C)O)c1Cc1ccc(-c2ccccc2-c2noc(=O)[nH]2)cc1 (centres unmarked)	low
CCCCc1nc(C)nc(OCCc2ccc(OCCOC)c(OC)c2)c1Cc1ccc(-c2ccccc2-c2noc(=O)[nH]2)cc1	low
CCCCc1nc(C)nc(OC2CCC(=O)CC2)c1Cc1ccc(-c2ccccc2-c2noc(=O)[nH]2)cc1	high
CCCCc1nc(C)nc(OCCO)c1Cc1ccc(-c2ccccc2-c2noc(=O)[nH]2)cc1	high
CCCCCc1nc(C)nc(OCCOC)c1Cc1ccc(-c2ccccc2-c2noc(=O)[nH]2)cc1	intermediate
